EC50 at 72 h values, listed per item
Assay: Cell cytotoxicity assay Jurkat (CellTiter-Glo, 72 hours)
Format: cell-based
Conditions: human, Jurkat clone E6-1 cells, Table 3; 72 hours, top concentration of 50 μM; read-out: Cytotox Jurkat EC50

Enquiry: Quick check: EC50 at 72 h of N#CCn1cc(NC(=O)c2cnn3cccnc23)c(-c2cc(S(=O)(=O)C3CC3)ccc2OC(F)F)n1 ?
Return: ≥ 50 µM

Enquiry: And the next one, COCCS(=O)(=O)c1ccc(OC(F)F)c(-c2nn(C)cc2NC(=O)c2cnn3cccnc23)c1 ?
Return: ≥ 50 µM

Enquiry: And the next one, C[C@@H](O)CS(=O)(=O)c1ccc(OC(F)F)c(-c2nn(C)cc2NC(=O)c2cnn3cccnc23)c1 (stereo in doubt) ?
Return: ≥ 50 µM

---

Biological target: recombinant human JAK1 kinase domain protein (Residues 854-1154) (Homo sapiens)
Construct: human JAK1 kinase domain protein (Residues 854-1154)
Assay: JAK1 biochemical assay (microfluidic mobility shift, peptide phosphorylation)
Conditions: 25 μM ATP, 1 nM total JAK1; read-out: Enzyme JAK1 Ki
# binning rule on Ki: class 0 (below 0.3 nM), class 1 (0.3 nM to below 1 nM), class 2 (1 nM or more)

Enquiry: Band for the recorded Ki of CN1CCC[C@@H]1Cn1cc(NC(=O)c2cnn3cccnc23)c(-c2cc(S(=O)(=O)C3CC3)ccc2OC(F)F)n1 (racemic) [Example 60] ?
Return: class 2

Enquiry: And the next one, CS(=O)(=O)c1ccc(OC(F)F)c(-c2nn(CC#N)cc2NC(=O)c2cnn3cccnc23)c1 [Example 28] ?
Return: class 0

Enquiry: And the next one, Cn1cc(NC(=O)c2cnn3cccnc23)c(-c2cc(S(=O)(=O)c3cn[nH]c3)ccc2OC(F)F)n1 [Example 41] ?
Return: class 0

Enquiry: And the next one, CN(C)CCn1cc(NC(=O)c2cnn3cccnc23)c(-c2cc(S(=O)(=O)C3CC3)ccc2OC(F)F)n1 [Example 50] ?
Return: class 2

Enquiry: And the next one, C[C@@H](O)CS(=O)(=O)c1ccc(OC(F)F)c(-c2nn(C)cc2NC(=O)c2cnn3cccnc23)c1 (stereo in doubt) [Example 25] ?
Return: class 1

Enquiry: And the next one, C[C@H](O)CS(=O)(=O)c1ccc(OC(F)F)c(-c2nn(C)cc2NC(=O)c2cnn3cccnc23)c1 (stereo in doubt) [Example 15] ?
Return: class 1

Enquiry: And the next one, C[C@@H](Cn1cc(S(=O)(=O)c2ccc(OC(F)F)c(-c3nn(C)cc3NC(=O)c3cnn4cccnc34)c2)cn1)N(C)C [Example 58] ?
Return: class 1

Enquiry: And the next one, Cn1cc(NC(=O)c2cnn3cccnc23)c(-c2cc(S(=O)(=O)C(CF)CF)ccc2OC(F)F)n1 [Example 39] ?
Return: class 2

---

Ki values, listed per item
Biological target: Recombinant human JAK2 kinase domain protein (Residues 812-1132) (Homo sapiens)
Assay: JAK2 biochemical assay (microfluidic mobility shift, peptide phosphorylation)
Details: Enzyme JAK2 Ki (nM), 25 μM ATP, 0.2 nM total JAK2
Entry rule: numbers only, all in nM.

Would you please look over these solved cases?
1. Cn1cc(NC(=O)c2cnn3cccnc23)c(-c2cc(S(=O)(=O)c3cnn(C4CN5CCC4CC5)c3)ccc2OC(F)F)n1 (centres unmarked) :: 0.98
2. Cn1cc(NC(=O)c2cnn3cccnc23)c(-c2cc(S(=O)(=O)C(F)F)ccc2OC(F)F)n1 :: 0.18
3. CN1CCC(S(=O)(=O)c2ccc(OC(F)F)c(-c3nn(C)cc3NC(=O)c3cnn4cccnc34)c2)C1 (single isomer, unassigned) [Example 20] :: 0.65

Enquiry: Quick check: Ki of CN(C)CCn1cc(NC(=O)c2cnn3cccnc23)c(-c2cc(S(=O)(=O)C3CC3)ccc2OC(F)F)n1 ?
Return: 1.9

Enquiry: And the next one, CN1CCN(CCn2cc(S(=O)(=O)c3ccc(OC(F)F)c(-c4nn(C)cc4NC(=O)c4cnn5cccnc45)c3)cn2)CC1 ?
Return: 0.21

Enquiry: And the next one, CS(=O)(=O)c1ccc(OC(F)F)c(-c2nn(CC#N)cc2NC(=O)c2cnn3cccnc23)c1 ?
Return: 0.14

Enquiry: And the next one, C[C@H](O)Cn1cc(S(=O)(=O)c2ccc(OC(F)F)c(-c3nn(C)cc3NC(=O)c3cnn4cccnc34)c2)cn1 ?
Return: 0.25

Enquiry: And the next one, CN1CC(n2cc(S(=O)(=O)c3ccc(OC(F)F)c(-c4nn(C)cc4NC(=O)c4cnn5cccnc45)c3)cn2)C1 ?
Return: 0.77

---

Test: Cell cytotoxicity assay Jurkat (CellTiter-Glo, 72 hours)
Format: cell-based
Details: human, Jurkat clone E6-1 cells, Table 3; 72 hours, top concentration of 50 μM; read-out: Cytotox Jurkat EC50
Consider the cut-off 30 µM. If the recorded EC50 at 72 h is strictly smaller, the label is True; if not, the label is False.

Worked examples, 5 molecules total:
1) Cn1cc(NC(=O)c2cnn3cccnc23)c(-c2cc(S(=O)(=O)C3COC3)ccc2OC(F)F)n1 [Example 13] :: False
2) C[C@H](O)CS(=O)(=O)c1ccc(OC(F)F)c(-c2nn(C)cc2NC(=O)c2cnn3cccnc23)c1 (stereo in doubt) [Example 15] :: False
3) Cn1cc(NC(=O)c2cnn3cccnc23)c(-c2cc(S(=O)(=O)c3cccc(O)c3)ccc2OC(F)F)n1 [Example 11] :: True
4) Cn1cc(NC(=O)c2cnn3cccnc23)c(-c2cc3c(cc2OC(F)F)NCCS3(=O)=O)n1 [Example 46] :: False
5) Cn1cc(NC(=O)c2cnn3cccnc23)c(-c2cc(S(C)(=O)=O)ccc2OC(F)F)n1 [Example 17] :: True

Attention now shifts to the item below.
Enquiry: Just wondering, is EC50 at 72 h of CN(CCO)S(=O)(=O)c1ccc(OC(F)F)c(-c2nn(C)cc2NC(=O)c2cnn3cccnc23)c1 [Example 73] below 30 µM?
Return: True

---

Biological target: recombinant human JAK1 kinase domain protein (Residues 854-1154) (Homo sapiens, UniProt P23458)
Construct: human JAK1 kinase domain protein (Residues 854-1154)
Sequence (P23458 854-1154): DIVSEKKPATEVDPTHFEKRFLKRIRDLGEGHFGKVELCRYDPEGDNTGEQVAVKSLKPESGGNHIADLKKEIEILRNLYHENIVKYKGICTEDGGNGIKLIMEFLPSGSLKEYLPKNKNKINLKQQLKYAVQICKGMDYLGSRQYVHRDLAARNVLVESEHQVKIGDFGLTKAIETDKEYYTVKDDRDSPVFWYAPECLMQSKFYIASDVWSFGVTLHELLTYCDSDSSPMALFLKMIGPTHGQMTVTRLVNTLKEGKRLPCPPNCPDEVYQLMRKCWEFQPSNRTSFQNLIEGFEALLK
Assay: JAK1 biochemical assay (microfluidic mobility shift, peptide phosphorylation)
Conditions: 25 μM ATP, 1 nM total JAK1; read-out: Enzyme JAK1 Ki
Consider the cut-off 0.7 nM. If the recorded Ki is strictly smaller, the label is label 1; if not, the label is label 0.

Enquiry: Just wondering, is Ki of Cn1cc(NC(=O)c2cnn3cccnc23)c(-c2cc(S(=O)(=O)C3CCCNC3)ccc2OC(F)F)n1 (single isomer, unassigned) [Example 36] below 0.7 nM?
Return: label 0

Enquiry: And the next one, Cn1cc(NC(=O)c2cnn3cccnc23)c(-c2cc(S(=O)(=O)C3CCNC3)ccc2OC(F)F)n1 (stereo not shown) ?
Return: label 0

Enquiry: And the next one, CC(O)C(C)S(=O)(=O)c1ccc(OC(F)F)c(-c2nn(C)cc2NC(=O)c2cnn3cccnc23)c1 (single isomer, unassigned) [Example 71] ?
Return: label 0

Enquiry: And the next one, CS(=O)(=O)c1ccc(OC(F)F)c(-c2nn(C3CCOC3=O)cc2NC(=O)c2cnn3cccnc23)c1 (single isomer, unassigned) [Example 33] ?
Return: label 1

Enquiry: And the next one, CCS(=O)(=O)c1ccc(OC(F)F)c(-c2nn(C)cc2NC(=O)c2cnn3cccnc23)c1 ?
Return: label 1

Enquiry: And the next one, CN(CCO)S(=O)(=O)c1ccc(OC(F)F)c(-c2nn(C)cc2NC(=O)c2cnn3cccnc23)c1 ?
Return: label 1

---

Ki values, listed per item
Biological target: Recombinant human JAK2 kinase domain protein (Residues 812-1132) (Homo sapiens, UniProt O60674)
Sequence (O60674 812-1132): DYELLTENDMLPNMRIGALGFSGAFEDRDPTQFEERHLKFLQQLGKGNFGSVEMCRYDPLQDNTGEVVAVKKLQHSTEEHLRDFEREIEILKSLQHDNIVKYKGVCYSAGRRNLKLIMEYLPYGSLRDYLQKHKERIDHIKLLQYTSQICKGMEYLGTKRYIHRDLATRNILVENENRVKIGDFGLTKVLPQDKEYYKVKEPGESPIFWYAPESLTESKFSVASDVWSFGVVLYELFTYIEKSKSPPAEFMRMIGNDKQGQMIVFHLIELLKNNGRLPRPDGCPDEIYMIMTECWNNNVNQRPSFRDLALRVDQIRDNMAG
Test: JAK2 biochemical assay (microfluidic mobility shift, peptide phosphorylation)
Details: Enzyme JAK2 Ki (nM), 25 μM ATP, 0.2 nM total JAK2
Entry rule: numbers only, all in nM.

1. CC(O)C(C)S(=O)(=O)c1ccc(OC(F)F)c(-c2nn(C)cc2NC(=O)c2cnn3cccnc23)c1 (single isomer, unassigned) [Example 70] :: 0.33
2. Cn1cc(NC(=O)c2cnn3cccnc23)c(-c2cc(S(=O)(=O)C(CF)CF)ccc2OC(F)F)n1 [Example 39] :: 0.53
3. Cn1cc(NC(=O)c2cnn3cccnc23)c(-c2cc(S(=O)(=O)c3ccn(C)c(=O)c3)ccc2OC(F)F)n1 [Example 44] :: 0.34

Enquiry: Quick check: Ki of Cn1cc(NC(=O)c2cnn3cccnc23)c(-c2cc(S(=O)(=O)c3cccnc3)ccc2OC(F)F)n1 [Example 42] ?
Return: 0.24
